Experiment: Microsomal stability in human liver microsomes assessed as parent compound remaining measured after 30 mins
Assay type: ADME, Microsome
Conditions: read-out: Stability
MEASUREMENT LABEL: remaining at 0.5 h

Data request: So what does the record say about remaining at 0.5 h for Cl.Cl.O=C(NCc1ccc(OCC(O)CN2CCN(c3noc4cc(F)ccc34)CC2)cc1)N(Cc1ccc(F)cc1)C1CCNCC1 (stereo unspecified) ?
Data returned: > 99%

* * *

Experiment: Drug concentration in male ICR mouse plasma at 10 mg/kg, ip measured after 1 hr
Type: ADME, organism-based
MEASUREMENT LABEL: concentration at 1 h
Give the value; after it, write the unit.

Data request: So what does the record say about concentration at 1 h for Cl.Cl.O=C(NCc1ccc(OCC(O)CN2CCN(c3noc4cc(F)ccc34)CC2)cc1)N(Cc1ccc(F)cc1)C1CCNCC1 (stereo unspecified) ?
Data returned: 463 ng/mL

Data origin, for the record: ChEMBL document CHEMBL6096690
